- Tested on: Neuro-2a
- procedure-details: neurite formation score, plate-normalized to DMSO control mean 5.04 (score (0-8 scale)); higher = more or longer neurites
- test-conditions: 0.1 µM
Let's look at some compounds and their measured neurite formation score.
Answer as a number with no unit attached.

CC[C@@H]1C(=O)N(C)c2cnc(Nc3ccc(C(=O)NC4CCN(C)CC4)cc3OC)nc2N1C1CCCC1 4.58
Cc1c(CN2CCN(C(=O)[C@H](C)O)CC2)sc2c(N3CCOCC3)nc(-c3cnc(N)nc3)nc12 4.42
Cn1cnc2c(F)c(Nc3ccc(Br)cc3F)c(C(=O)NOCCO)cc21 5.38
CNC(=O)c1ccc(C)c(-n2c(C)cc(OCc3ccc(F)cc3F)c(Br)c2=O)c1 2.21
Cc1ncc(CCCN(C)C)cc1Nc1ncc2c(n1)-c1ccc(C(F)(F)F)cc1NC(=S)C2 4.92

Bench note, Neuro-2a: entry "C[C@@]1(C(=O)Nc2ccc(F)nc2)CCCN1c1nc(Nc2cc(C3CC3)n[nH]2)c2cccn2n1" , its neurite formation score = 4.38

The measured neurite formation score that "O=C1c2ccccc2-c2n[nH]c3cccc1c23" showed for Neuro-2a is 3.92

Reported neurite formation score (Neuro-2a) for entry "CC(C)(C)NS(=O)(=O)c1cncc(-c2cc(F)c3nc(N)nn3c2)c1" is 4.92

Per the reported Neuro-2a data, "C[C@H](NC(=O)/C(C#N)=C/c1cccc(Br)n1)c1ccccc1" has neurite formation score of 4.58

Record for "CC(C)(CCCCCC(O)CCCCCC(C)(C)C(=O)O)C(=O)O" under target or system Neuro-2a: neurite formation score reported as 0.0903
